Tested on: HCC1806
Test: Antiproliferative activity against human HCC1806 cells assessed as reduction in cell growth incubated for 7 days by celltiter 96 aqueous one solution cell proliferation assay
Conditions: HCC1806, 168 h
parameter: EC50 (nM)
Answer in nM, number only, no unit symbol.

Lab note: Cc1ccc(-c2nc(N3CCN(CCN(C)C)CC3)ncc2-c2ccoc2)cc1.Cl.Cl gave EC50 of 2830

---

Test system: MDA-MB-468
Assay: Antiproliferative activity against human MDA-MB-468 cells assessed as reduction in cell growth incubated for 7 days by celltiter 96 aqueous one solution cell proliferation assay
Details: MDA-MB-468, 168 h
parameter: pEC50
Scale for pEC50: -log10 of concentration given in mol/L; no unit attached.

Lab note: Cc1ccc(-c2nc(N3CCN(CCN(C)C)CC3)ncc2-c2ccoc2)cc1.Cl.Cl gave pEC50 of 5.69
